Sourced from ChEMBL document CHEMBL3272046

- Species: Cavia porcellus
- experiment: Agonist activity at beta-adrenergic receptor in guinea pig right atrial muscle assessed as rate of contraction of spontaneously beating atria
- Assay type: tissue-based
- settings: Cardiac atrium
measured-endpoint: ED25 (×10⁻⁵ M)

(I) CC(C)(C)NCC(O)c1ccc(O)c(CS(C)(=O)=O)n1 (stereo not drawn)
(II) CC(C)(C)NCC(O)c1ccc(O)cn1 (stereo not drawn)
(III) Cc1nc(C(O)CNC(C)(C)C)ccc1O (stereo not drawn)
(IV) CC(C)(C)NCC(O)c1ccc(O)c(CS(C)(=O)=O)c1 (stereo not drawn)
Rank the 4 molecules shown above by ED25, smallest number first. State the ranking by listing the labels in the requested order.
III, II, IV, I
